assay: antimalarial activity against Dd2 strain (AID 2302);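 further: 0% = DMSO untreated growth and 100% = chloroquine plus artemisinin killed control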; conditions: P. falciparum Dd2 in RBCs, LDH growth readout, 72 h; at 2 µM; active compounds read high
Note to self: values exactly at 20% are Y. So growth inhibition at or above 20% is Y, below is N.

[
  {
    "SUBSTANCE SMILES": "CC(C)(C)NC(=O)c1ccc(Oc2ccc(OC(F)(F)F)cc2)c(NC(=O)C(C)(C)C)c1",
    "GROUP": "N"
  },
  {
    "SUBSTANCE SMILES": "c1ccc(CCNCc2cccc(-c3ccc(CNc4ccc5ncccc5c4)cc3)c2)cc1",
    "GROUP": "Y"
  },
  {
    "SUBSTANCE SMILES": "Cc1cccc(Cl)c1S(=O)(=O)Nc1cccc(CCN2CCC(N3CCCCC3)CC2)c1",
    "GROUP": "N"
  },
  {
    "SUBSTANCE SMILES": "NCc1cccc(-c2cccc(CNC3CCN(Cc4ccccc4)CC3)c2)c1",
    "GROUP": "Y"
  },
  {
    "SUBSTANCE SMILES": "Cc1cccc(C(=O)Nc2ccnc(N3CCC(N(C)Cc4ccc(C#N)cc4)CC3)c2)c1",
    "GROUP": "N"
  }
]

* * *

assay: inhibition of 3D7 malaria parasite growth – strain 3D7 (AID 2306);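 further: 0% = DMSO wells and 100% = chloroquine plus artemisinin control wells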; conditions: P. falciparum 3D7 erythrocytic growth, LDH absorbance, 72 h; at 2 µM; active compounds read high

[
  {
    "SUBSTANCE SMILES": "CN(C)CCOc1ccc(NC(=O)Nc2ccnc3c(Br)cccc23)cc1Cl",
    "growth inhibition (%)": 97
  },
  {
    "SUBSTANCE SMILES": "Oc1ccc(-c2cc(-c3ccc(O)cc3)nc(-c3ccccc3)n2)cc1",
    "growth inhibition (%)": 96
  },
  {
    "SUBSTANCE SMILES": "CC1(C)N=C(N)N=C(N)N1OCCCc1c(Cl)cccc1Cl",
    "growth inhibition (%)": 95
  },
  {
    "SUBSTANCE SMILES": "O=c1[nH]c(NCCCCCN2CCC(c3c[nH]c4ccccc34)CC2)ncc1Cc1ccc(Cl)c(Cl)c1",
    "growth inhibition (%)": 94
  },
  {
    "SUBSTANCE SMILES": "COc1ccc2c(NN=Cc3cccc(C)n3)ccnc2c1",
    "growth inhibition (%)": 96
  },
  {
    "SUBSTANCE SMILES": "CCn1c(CN2CCN(Cc3ccccc3)CC2)nc2cc(NC(=O)c3cccs3)ccc21",
    "growth inhibition (%)": 97
  },
  {
    "SUBSTANCE SMILES": "COc1cccc(CCc2cccc(CNC(C)=O)c2)c1",
    "growth inhibition (%)": 88
  }
]

* * *

test: inhibition of 3D7 malaria parasite growth – strain 3D7 (AID 2306);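 further: 0% = DMSO wells and 100% = chloroquine plus artemisinin control wells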; conditions: P. falciparum 3D7 erythrocytic growth, LDH absorbance, 72 h; at 2 µM; active compounds read high
Label 0 (no) if growth inhibition falls below 90%; label 1 (yes) in every other case.

[
  {
    "COMPOUND": "Cc1cc(C(=O)Nc2ccc(C)c(-c3nc(N(C(=O)c4ccc(F)c(C)c4)C4CCNCC4)nc4c3ccc(=O)n4-c3c(F)cccc3F)c2)ccc1F",
    "GROUP": "1 (yes)"
  },
  {
    "COMPOUND": "Nc1nccc2ccc(-c3cccc4ncccc34)cc12",
    "GROUP": "1 (yes)"
  },
  {
    "COMPOUND": "COc1ccccc1C1CCN(C2CCC(NC(=O)/C=C/c3ccc(C(F)(F)F)cc3F)CC2)CC1 (centres undefined)",
    "GROUP": "1 (yes)"
  },
  {
    "COMPOUND": "Clc1ccc2c(N3CCN(CCN4CCN(c5ccnc6cc(Cl)ccc56)CC4)CC3)ccnc2c1",
    "GROUP": "1 (yes)"
  },
  {
    "COMPOUND": "O=c1cc(NCCCN(Cc2cc3c(Cl)cc(Cl)cc3[nH]2)Cc2cc3c(Cl)cc(Cl)cc3[nH]2)[nH]c2ccccc12",
    "GROUP": "0 (no)"
  },
  {
    "COMPOUND": "CCn1c2c(c(=N)c3ccccc31)CCC2",
    "GROUP": "0 (no)"
  },
  {
    "COMPOUND": "CCC(C)NCC(O)(c1ccc(Cl)cc1)c1ccc(Cl)cc1 (centres undefined)",
    "GROUP": "1 (yes)"
  },
  {
    "COMPOUND": "OC(CNCCCc1ccccc1)c1cc(OCc2ccccc2)cc(OCc2ccccc2)c1 (centres undefined)",
    "GROUP": "1 (yes)"
  },
  {
    "COMPOUND": "Cc1cccc(-c2nc3[nH]c(=O)cc(NC(=O)C(C)C)n3n2)c1",
    "GROUP": "1 (yes)"
  },
  {
    "COMPOUND": "O=C(Nc1ccc(Br)cc1)N(CCN1CCOCC1)CC(O)COCc1ccc(Cl)c(Cl)c1 (centres undefined)",
    "GROUP": "1 (yes)"
  },
  {
    "COMPOUND": "NC(N)=Nc1nc(-c2ccc(NCc3ccc(CNc4cccc(-c5csc(N=C(N)N)n5)c4)cc3)cc2)cs1",
    "GROUP": "1 (yes)"
  },
  {
    "COMPOUND": "CN(C)CCOc1ccc2[nH]c(-c3cccc(OCc4ccccc4)c3)nc2c1C#N",
    "GROUP": "1 (yes)"
  },
  {
    "COMPOUND": "Cc1cc(-c2cc3nc4c(c(=O)n3[nH]2)CCCC4)c(C)o1",
    "GROUP": "1 (yes)"
  },
  {
    "COMPOUND": "COc1cccc(CN2Cc3ccccc3OC3(CCN(Cc4c[nH]c5cnccc45)CC3)C2)c1",
    "GROUP": "0 (no)"
  },
  {
    "COMPOUND": "O=C(NCc1cccc2ccccc12)[C@@H]1CCCN1C(=O)c1ccc(O)c(-c2ccc(Cl)c(Cl)c2)c1",
    "GROUP": "1 (yes)"
  },
  {
    "COMPOUND": "O=C(Nc1ccc(Cn2ncc(N3CCCNCC3)c(Cl)c2=O)cc1)Nc1cccc(Oc2ccccc2)c1",
    "GROUP": "0 (no)"
  },
  {
    "COMPOUND": "Cc1nn(CCOC(=O)NC(NCC2COc3ccccc3O2)C(Cl)(Cl)Cl)cc1[N+](=O)[O-] (centres undefined)",
    "GROUP": "1 (yes)"
  }
]

// data source = PubChem BioAssay
